FYI, the data here is from PubChem BioAssay AID686979.

Test: qHTS for Inhibitors of human tyrosyl-DNA phosphodiesterase 1 (TDP1): qHTS in cells in presence of CPT; further: nearly all actives have a fitted effect of over 55% in size
Details: chicken DT40 Tdp1-/-;hTDP1 cells + 20 nM CPT, ATP luminescence, 48 h; series mostly up to 46.2 µM
Procedure: Human tyrosyl-DNA phosphodiesterase 1 (TDP1) is a novel repair gene, and we propose to use it as a new target for anticancer drug development. […] For the primary screen, Tdp1-/-;hTDP1 cells will be exposed to small molecules in the presence or absence of CPT, and their growth kinetics will be evaluated after 48 hours by measuring ATP activity. […] The hit compounds will then be evaluated in the presence or absence of CPT using Tdp1-/- cells. […]
Screen size: about 420,000 compounds; about 50,000 (12%) were called active. Another 26% or so got no clear call; they are omitted. The call rests on the fitted dose curve; in most records, active means well fitted inhibition curve with a large enough effect; inconclusive means small, poorly fitted or top-dose-only effect; inactive means flat fitted curve, though single readings scatter. For the sample, actives were picked, then their nearest neighbours and some compounds at random.
Thanks in advance; please answer with one of these: active, inactive

Solved cases below.
>>> category("CC(=O)Nc1ccc(S(=O)(=O)Nc2nc(-c3ccc(C(C)(C)C)cc3)cs2)cc1")
"inactive"
>>> category("Cc1nc(NNC(=O)c2ccccc2)cc(-c2ccccc2)n1")
"inactive"
>>> category("C=CCn1c(C)cc(C2=NNC(=NCC)SC2)c1C")
"active"

Lab log entry: N#CC1=C(N)Oc2c(ccc3cccnc23)C1c1ccncc1 (stereo not drawn) — outcome as called in the assay?
inactive

Lab log entry: Cc1nn2c(=O)cc(COC(=O)c3cccc(NC(=O)COc4ccccc4Cl)c3)nc2s1 — outcome as called in the assay?
inactive

Lab log entry: N#CC1=C(N)Oc2cc(N)ccc2C1c1ccccc1 (stereo not drawn) — outcome as called in the assay?
active

Lab log entry: O=C1/C(=C\c2ccsc2)NC(=S)N1c1ccccc1 — outcome as called in the assay?
inactive

Lab log entry: Cc1cc(C)c2c3c(sc2n1)C(c1ccccc1)C(C#N)=C(N)O3 (stereo not drawn) — outcome as called in the assay?
inactive

Lab log entry: Cc1csc(NC(=O)NC2(C(F)(F)F)Oc3ccccc3O2)n1 — outcome as called in the assay?
active
